These data points were gathered from the supplement of paper PMC10567573.

B1: FAM189A2 (parent)
chain: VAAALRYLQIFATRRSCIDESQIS

Variants of: B1
PROTOCOL: protein stability index of a GFP-peptide fusion (GPS, HEK-293T) (PSI 1-6); higher = more stable;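 further: lentivirally expressed fusions sorted by FACS into six bins by GFP to DsRed ratio, PSI derived from sequencing read proportions per bin multiplied by bin number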
TEST_CONDITIONS: c terminus: a fixed tail appended
// map protein stability index to label using low group = under 2, middle group = from 2 up to 3, high group = 3 and over

Examples with answers:
- VAAALRYLQIFATRRSCIDESQYS [I23Y]: high group
- VAAALRYLQIFAFRRSCIDESQIS [T13F]: middle group

**Query** Class (by measured protein stability index) for VAAALRYLQIFATRVSCIDESQIS [R15V]
**Result** middle group

**Query** Class (by measured protein stability index) for VAAALRYLQIFATRRSCIDEGQIS [S21G]
**Result** low group

**Query** Class (by measured protein stability index) for VAAALRHLQIFATRRSCIDESQIS [Y7H]
**Result** middle group

**Query** Class (by measured protein stability index) for VAAALRYLQIFATRRSCIDESQKS [I23K]
**Result** low group

**Query** Class (by measured protein stability index) for VAAFLRYLQIFATRRSCIDESQIS [A4F]
**Result** low group

**Query** Class (by measured protein stability index) for VAAALRYLQIFKTRRSCIDESQIS [A12K]
**Result** middle group

**Query** Class (by measured protein stability index) for VAALLRYLQIFATRRSCIDESQIS [A4L]
**Result** high group

**Query** Class (by measured protein stability index) for VAAALRYLQIFATRRSAIDESQIS [C17A]
**Result** low group

**Query** Class (by measured protein stability index) for VAAALRYGQIFATRRSCIDESQIS [L8G]
**Result** low group

**Query** Class (by measured protein stability index) for VAAALRYPQIFATRRSCIDESQIS [L8P]
**Result** low group

**Query** Class (by measured protein stability index) for VAAALRYLNIFATRRSCIDESQIS [Q9N]
**Result** low group
